# assayProcedure: IRF3 reporter activation in THP-1 macrophages, cell-based, PMA-stimulated THP-1, luminescence (AID 1053176)
# conditionsUsed: PMA-differentiated THP-1, IRF3 reporter luminescence; stronger effect = higher value
reportedMetric: fraction signal
One number for each entry.

Below, 8 compounds whose answers are already recorded.
compound: COc1cccc(/C=N/Nc2ncnc3c2cnn3-c2cccc(OC)c2)c1
fraction signal: 0.0045
--
compound: CN(C)CCNC(=O)Nc1ccc(N(C)c2ccnc(Nc3ccc(CS(C)(=O)=O)cc3)n2)cc1
fraction signal: 0.0045
--
compound: Cn1c(=O)c(Oc2ccc(F)cc2F)cc2cnc(NC3CCOCC3)nc21
fraction signal: -0.007
--
compound: O=C(O[C@H]1CN[C@H](C#Cc2cc3ncnc(Nc4ccc(Cc5ccccc5)cc4)c3s2)C1)N1CCOCC1
fraction signal: -0.006
--
compound: N=C1N=C(N)C(=Cc2ccc3ncccc3c2)S1
fraction signal: 0.006
--
compound: Nc1c(C(=O)c2cccc(C(O)CO)c2)cnn1-c1ccc(F)cc1 (stereo unspecified)
fraction signal: 0.0035
--
compound: Cn1c(=O)c(Sc2ccccc2F)cc2cnc(NC3CCOCC3)nc21
fraction signal: -0.0075
--
compound: CC(C)c1[nH]nc2c1N=C(c1ccccc1Cl)c1cc([N+](=O)[O-])ccc1N2
fraction signal: -0.0115

For each listed entry, give its fraction signal.
1. COc1cccc(-n2nc(C)c3c(N/N=C(\C)c4ccncc4)ncnc32)c1
2. COCC(N=C1NC(=O)C(=Cc2ccc3ncccc3c2)S1)c1ccccc1 (stereo unspecified)
3. COc1cc[nH]c1C=C1C(=O)Nc2ccc(F)c(C#CC(O)C(N)C(C)O)c21 (stereo unspecified)

-0.0005
-0.005
0.0035
